- STUDY SYSTEM: T1, Human CD3eg linker (human)
- T1 construct: Single chain: epsilon and gamma subunits of human CD3 joined by a 29-mer linker, Flag-tag at the C-terminus; also called recombinant human CD3
- T1 chain: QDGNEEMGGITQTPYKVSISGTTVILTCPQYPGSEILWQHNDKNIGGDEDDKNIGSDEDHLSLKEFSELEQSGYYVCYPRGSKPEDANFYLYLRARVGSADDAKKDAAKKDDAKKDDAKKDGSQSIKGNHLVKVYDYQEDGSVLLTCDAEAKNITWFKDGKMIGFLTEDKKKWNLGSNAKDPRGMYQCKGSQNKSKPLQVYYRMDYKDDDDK
- TEST NAME: Biacore SPR, vs template H183/L072
Answer each item with its documented fold change of affinity.
Write your answer as a measured quantity: the number, then the unit.

Request: What value of fold change of affinity has been recorded for this entry: H183/L072 VH N53D (antibody, name in Kabat numbering, V domains shown) VH: QVQLVESGGGLVQPGRSLRLSCAASGFTFSNAWMHWVRQAPGKGLEWVAQIKDKGDAYAAYYAPSVKGRFTISRDDSKNSIYLQMNSLKTEDTAVYYCHYVHYASASTVLPAFGVDAWGQGTTVTVSS VL: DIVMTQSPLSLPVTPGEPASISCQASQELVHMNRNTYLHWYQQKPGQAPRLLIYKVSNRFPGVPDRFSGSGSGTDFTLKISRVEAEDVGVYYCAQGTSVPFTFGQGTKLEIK
Response: 0.4 fold

Request: Lookup H183/L072 VH A54Q (antibody, name in Kabat numbering, V domains shown) VH: QVQLVESGGGLVQPGRSLRLSCAASGFTFSNAWMHWVRQAPGKGLEWVAQIKDKGNQYAAYYAPSVKGRFTISRDDSKNSIYLQMNSLKTEDTAVYYCHYVHYASASTVLPAFGVDAWGQGTTVTVSS VL: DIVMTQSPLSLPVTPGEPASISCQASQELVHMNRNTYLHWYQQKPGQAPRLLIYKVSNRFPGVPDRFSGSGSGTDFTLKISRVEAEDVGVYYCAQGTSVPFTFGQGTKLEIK
Response: 1.1 fold

Entry source: patent US20210388087A1
